Hey, just so you know, these numbers are from patent US5994363A.

assay: Bioavailability by route of administration in dog (Example 3); settings: in vivo, 0.2 mg/kg
outcome measure: AUC (ng·h/mL)

CN1CCc2cccc3c2[C@H]1Cc1ccc(O)c(O)c1-3; 5.45

###

assay: clinical; details: human, plasma, iv, 1 mg
outcome measure: Cmax

CN1CCc2cccc3c2[C@H]1Cc1ccc(O)c(O)c1-3; 8.3 ng/mL

###

assay: clinical; conditions: human, plasma, 4 mg
outcome measure: AUC (ng·h/mL)

CN1CCc2cccc3c2[C@H]1Cc1ccc(O)c(O)c1-3 [apomorphine]; 0.527

###

assay: clinical; conditions: human, plasma, 4 mg
outcome measure: Cmax (ng/mL)

CN1CCc2cccc3c2[C@H]1Cc1ccc(O)c(O)c1-3; 0.83

###

assay: Bioavailability by route of administration in dog (Example 3); conditions: in vivo, sc, 0.04 mg/kg
outcome measure: AUC (ng·h/mL)

CN1CCc2cccc3c2[C@H]1Cc1ccc(O)c(O)c1-3; 8.06

###

assay: clinical; settings: human, plasma, iv, 1 mg
outcome measure: AUC (ng·h/mL)

CN1CCc2cccc3c2[C@H]1Cc1ccc(O)c(O)c1-3 [apomorphine]; 3.45
